Value source: PubChem BioAssay AID1963841

test system: 439559-082-T-J2-PDC spheroid viability; test: Anticancer human tumor 439559-082-T-J2-PDC patient-derived colon adenocarcinoma cell line growth inhibition [POLQ]; settings: second compound 3.16 µM; first compound 0.316 µM; stronger effect = lower value; spheroids with HUVEC and MSC
Threshold-based label: viability, T/C under 90% gives t, viability, T/C not under 90% gives f.

compound: C=CC(=O)N1CCN(c2nc(=O)n(-c3c(C)ccnc3C(C)C)c3nc(-c4c(O)cccc4F)c(F)cc23)C(C)C1 (stereo not given) + COC1C(OC(N)=O)C(O)C(Oc2ccc3c(O)c(NC(=O)c4ccc(O)c(CC=C(C)C)c4)c(=O)oc3c2C)OC1(C)C
class: f

viability, T/C under 90%? Item: C#Cc1c(F)ccc2cc(O)cc(-c3ncc4c(N5CC6CCC(C5)N6)nc(OCC56CCCN5CC(F)C6)nc4c3F)c12 (stereo not given) + Cc1cccc(N(C)C(=O)C2C(O)CCN2c2nc(C)cc(C(F)(F)F)c2C#N)c1
t

I wonder whether CC1COCCN1c1cc(-c2ccnn2C)c2ccnc(-c3ccn[nH]3)c2n1 (stereo not given) + COC1C(OC(N)=O)C(O)C(Oc2ccc3c(O)c(NC(=O)c4ccc(O)c(CC=C(C)C)c4)c(=O)oc3c2C)OC1(C)C has viability, T/C below 90%. Can you tell?
t

Say whether its viability, T/C is strictly beneath 90%. Entry: C#Cc1c(F)ccc2cc(O)cc(-c3ncc4c(N5CC6CCC(C5)N6)nc(OCC56CCCN5CC(F)C6)nc4c3F)c12 (stereo not given) + Nc1ccc(C#CCN(C(=O)Cc2ncc(C(F)(F)F)cc2C(F)(F)F)c2ccc(F)cc2)nn1
t

Does this compound meet the criterion viability, T/C < 90%? CCCS(=O)(=O)Nc1ccc(F)c(C(=O)c2c[nH]c3ncc(-c4ccc(Cl)cc4)cc23)c1F + Cc1cccc(N(C)C(=O)C2C(O)CCN2c2nc(C)cc(C(F)(F)F)c2C#N)c1
f

Find out if reported viability, T/C for CC1COCCN1c1cc(C2(O)CC3CCC(C2)O3)c2cnn(-c3ccn[nH]3)c2n1 (stereo not given) + Cc1cccc(N(C)C(=O)C2C(O)CCN2c2nc(C)cc(C(F)(F)F)c2C#N)c1 is less than 90%
t

A record lists CC1COCCN1c1cc(-c2ccnn2C)c2ccnc(-c3ccn[nH]3)c2n1 (stereo not given) + Nc1ccc(C#CCN(C(=O)Cc2ncc(C(F)(F)F)cc2C(F)(F)F)c2ccc(F)cc2)nn1 . Is its viability, T/C below 90%?
t

Is viability, T/C of COc1cccc2c1C(=O)c1c(O)c3c(c(O)c1C2=O)CC(O)(C(=O)CO)CC3OC1CC(N)C(O)C(C)O1 (stereo not given) + Cc1cccc(N(C)C(=O)C2C(O)CCN2c2nc(C)cc(C(F)(F)F)c2C#N)c1 strictly below 90%?
t

Consider COc1cc(C2c3cc4c(cc3C(OC3OC5COC(C)OC5C(O)C3O)C3COC(=O)C23)OCO4)cc(OC)c1O (stereo not given) + COC1C(OC(N)=O)C(O)C(Oc2ccc3c(O)c(NC(=O)c4ccc(O)c(CC=C(C)C)c4)c(=O)oc3c2C)OC1(C)C . Does its viability, T/C lie strictly below 90%?
f

----------
system: 439559-082-T-J2-PDC spheroid viability; test: Anticancer human tumor 439559-082-T-J2-PDC cell line growth inhibition [POLQ]; details: second compound 0.1 µM; first compound 0.000316 µM; stronger effect = lower value; spheroids with HUVEC and MSC;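 note: spheroids exposed to compounds for seven days before readout; 100% = DMSO vehicle control viability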
measuredMetric: viability, T/C (%)
Hi! Could you send only the number? It should be in %, unit omitted.

Record excerpt, results attached:
compound: CC[C@@]1(O)C(=O)OCc2c1cc1n(c2=O)Cc2cc3c(CN(C)C)c(O)ccc3nc2-1 + COC1C(OC(N)=O)C(O)C(Oc2ccc3c(O)c(NC(=O)c4ccc(O)c(CC=C(C)C)c4)c(=O)oc3c2C)OC1(C)C
viability, T/C, %: 99
--
compound: CC[C@@]1(O)C(=O)OCc2c1cc1n(c2=O)Cc2cc3c(CN(C)C)c(O)ccc3nc2-1 + Cc1cccc(N(C)C(=O)C2C(O)CCN2c2nc(C)cc(C(F)(F)F)c2C#N)c1
viability, T/C, %: 113
--
compound: Cn1ncnc1[C@H]1c2n[nH]c(=O)c3cc(F)cc(c23)N[C@@H]1c1ccc(F)cc1 + COC1C(OC(N)=O)C(O)C(Oc2ccc3c(O)c(NC(=O)c4ccc(O)c(CC=C(C)C)c4)c(=O)oc3c2C)OC1(C)C
viability, T/C, %: 110
--
compound: Cn1ncnc1[C@H]1c2n[nH]c(=O)c3cc(F)cc(c23)N[C@@H]1c1ccc(F)cc1 + Nc1ccc(C#CCN(C(=O)Cc2ncc(C(F)(F)F)cc2C(F)(F)F)c2ccc(F)cc2)nn1
viability, T/C, %: 103
--
compound: Cn1ncnc1[C@H]1c2n[nH]c(=O)c3cc(F)cc(c23)N[C@@H]1c1ccc(F)cc1 + Cc1cccc(N(C)C(=O)C2C(O)CCN2c2nc(C)cc(C(F)(F)F)c2C#N)c1
viability, T/C, %: 108

Consider the compound CC[C@@]1(O)C(=O)OCc2c1cc1n(c2=O)Cc2cc3c(CN(C)C)c(O)ccc3nc2-1 + Nc1ccc(C#CCN(C(=O)Cc2ncc(C(F)(F)F)cc2C(F)(F)F)c2ccc(F)cc2)nn1 and give its measured viability, T/C.
107
